These entries and their values trace back to PubChem BioAssay (NCI).

system: HCT-15 colon; assay: NCI tumour cell line growth inhibition, 48 h
Observed Property: GI50

Solved cases below.
Compound: CCN(CC)CCCNc1cc(OC)c(OC)c2cccnc12
GI50: 14.1 µM

Compound: Nc1nc(N)c(-c2ccc(Cl)c(Cl)c2)c(CP(Cl)(Cl)(Cl)Br)n1
GI50: 4.26 µM

Turning now to a further record.
Please fill in: GI50 reported for CC(=O)O[C@H]1CC[C@]2(C)C3C(=O)C[C@]4(C)[C@@H](C(C)CCC(=O)O)CC[C@@]4(C)[C@@H]3CC[C@H]2C1(C)C (stereo partly drawn) = 11.7 µM

----------
Entries and their TGI values follow.
test system: NCI-H522 lung; assay: NCI tumour cell line growth inhibition, 48 h
Give a bare numeral; the unit µM is implied.

Compound: COc1nc2c(c(=O)[nH]1)N=C(c1ccc(Cl)cc1)CC(c1ccccc1)N2 (configuration not stated)
Test System: NCI-H522 lung
Unit Annotation: µM
TGI: 48.6
--
Compound: Cn1cc(-c2nc(-c3cn(C)c4ncccc34)cs2)c2ccccc21
Test System: NCI-H522 lung
Unit Annotation: µM
TGI: 11.9

Please fill in: TGI reported for "CCCCC[C@H]1C/C=C2/C(=O)C(Cl)=C[C@@H]2C/C=C\CCCC(=O)O1" = 0.755

----------
system: 786-0 renal; assay: NCI tumour cell line growth inhibition, 48 h
Observed Property: TGI (µM)
Give a bare numeral; the unit µM is implied.

Molecule: NC(=O)c1ncn2c(=O)n(CCCl)nnc12
Reading: 195
--
Molecule: Cc1ccc(/C(=C/C=C(C#N)C#N)Sc2nc3ccccc3s2)cc1
Reading: 6.78
--
Molecule: Cc1cc(OCc2nn(CN3CCN(C)CC3)c(=S)n2/N=C/c2ccc(F)cc2)ccc1Cl
Reading: 34.1
--
Molecule: C1=C\CCCCN2CC[C@H]3[C@H](CCCC/C=C\CCCN4C[C@@H](CCCCC/1)C[C@@H]3C4)C2
Reading: 25.9
--
Molecule: COc1cc(NCCC2CCCCN2)c2ncccc2c1OC (configuration not stated)
Reading: 36.9

Please fill in: TGI reported for "O=C(CCl)Nc1ccc(Cc2ccc(NC(=O)CCl)cc2)cc1" = 5.1

Please fill in: TGI reported for "CCOC(=O)c1cc(C(=O)c2cc(OC)c(OC)c(OC)c2)n2ccc(-c3cc[n+](CC(=O)c4cc(OC)c(OC)c(OC)c4)cc3)cc12" = 3.39

Please fill in: TGI reported for "CC(=O)/C=C/c1ccc(N(CCO)Cc2ccc(C(C)(C)C)cc2)cc1" = 184

----------
tested on: CCRF-CEM leukemia; assay: NCI tumour cell line growth inhibition, 48 h
Observed Property: log10 of TGI (log10 of the value in µM)
# log10 transformed; quantity=TGI; unit=µM

Solved cases below.
Compound: c1ccc(/C(=N\Nc2nc3ccccc3s2)c2ccccn2)cc1
log10 of TGI: 0.03
//
Compound: Nc1no[n+]([O-])c1-c1nnc2c(n1)-c1ccccc1C2=O
log10 of TGI: 0.97
//
Compound: CCS(=O)(=O)N1CCN(c2ccc(Nc3ncc(C(N)=O)c(NC4CC4)n3)cc2)CC1
log10 of TGI: 1.04
//
Compound: NC(=O)c1ncn2c(=O)n(CCCl)nnc12
log10 of TGI: 2.64
//
Compound: CCOC(=O)c1ccn2c(c1)c(C#N)c1nc3ccccc3nc12
log10 of TGI: 1.84

Please fill in: log10 of TGI reported for "Cc1ccc(/C(=C/C=C(C#N)C#N)Sc2nc3ccccc3s2)cc1" = 0.48

Please fill in: log10 of TGI reported for "O=C(Nc1cc2cc([N+](=O)[O-])ccc2oc1=O)c1cccs1" = 1.89
